Can you tell me LD50 at 336 h for the items I'm about to list?
- assay.name: Acute toxicity
- conditions: mouse, in vivo; ddy mice, single intravenous administration, observed for 14 days, Behrens Korber's method
Just the number in mg/kg, nothing appended.

The reported LD50 at 336 h of the compound CCCCCCCC(=O)OC1=C(C)C2(OCCO2)C(=O)C2=C1N1C[C@@H]3N[C@@H]3[C@]1(OC)[C@@H]2COC(N)=O was 3.1

The reported LD50 at 336 h of the compound CCCCC/C=C\C/C=C\CCCCCCCC(=O)OC1=C(C)C2(OCCO2)C(=O)C2=C1N1C[C@@H]3N[C@@H]3[C@]1(OC)[C@@H]2COC(N)=O was 4.2

The reported LD50 at 336 h of the compound CCCCCCCCCCCC(=O)OC1=C(C)C2(OCCO2)C(=O)C2=C1N1C[C@@H]3N[C@@H]3[C@]1(OC)[C@@H]2COC(N)=O was 3

The reported LD50 at 336 h of the compound CC(=O)OC1=C(C)C2(OCCO2)C(=O)C2=C1N1C[C@H]3[C@H](N3C)[C@]1(O)[C@H]2COC(N)=O (stereo partly shown) was 11.3
